The reported numbers originate from patent US10941182.

- study target: T1, rat APJ receptor (rat, UniProt Q9JHG3 1-377)
- T1 sequence (looked up): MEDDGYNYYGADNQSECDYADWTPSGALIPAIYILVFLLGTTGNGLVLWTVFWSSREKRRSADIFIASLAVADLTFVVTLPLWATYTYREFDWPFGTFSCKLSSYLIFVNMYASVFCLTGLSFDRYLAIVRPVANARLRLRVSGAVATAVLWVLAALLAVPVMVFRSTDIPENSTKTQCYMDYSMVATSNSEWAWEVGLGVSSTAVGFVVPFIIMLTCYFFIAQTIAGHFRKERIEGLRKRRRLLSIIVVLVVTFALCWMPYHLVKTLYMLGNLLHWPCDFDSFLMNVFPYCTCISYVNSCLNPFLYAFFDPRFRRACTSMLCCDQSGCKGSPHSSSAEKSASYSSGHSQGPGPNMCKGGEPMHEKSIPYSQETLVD
- assay name: cell-based or functional assay
Starred links: 1 amine or outer side, 2 acyl side, 3 side chain; linkers in the order of their positions; H or OH if unused. Non-standard residues stand in square brackets, D forms with d. Primed or numbered codes have the meaning given here. *: point of attachment. Oic = O=C(O)[C@@H]1C[C@@H]2CCCC[C@@H]2N1; Phe(4-Cl) = N[C@@H](Cc1ccc(Cl)cc1)C(=O)O; γGlu = O=C(O)[C@H](CCC(=O)[*:2])N[*:1]; 1Nal = N[C@@H](Cc1cccc2ccccc12)C(=O)O; 2Nal = N[C@@H](Cc1ccc2ccccc2c1)C(=O)O; NMeR = CN[C@@H](CCCNC(=N)N)C(=O)O; Tridecanoyl = CCCCCCCCCCCCC(=O)*; hArg = N=C(N)NCCCC[C@H](N)C(=O)O; Cha = N[C@@H](CC1CCCCC1)C(=O)O; αMeP = C[C@@]1(C(=O)O)CCCN1; Nle = CCCC[C@H](N)C(=O)O; Pip′ = not defined here; AEEA = NCCOCCOCC(=O)O; Aib = CC(C)(N)C(=O)O; BLeu = β-leucine

[
  {
    "binder": "Tridecanoyl-[γGlu][AEEA][AEEA]RQ[Nle]P[hArg][Cha]SAKG[Pip′][Nle]P[Phe(4-Cl)]-OH [Apelin polypeptide SEQ ID NO: 564]",
    "EC50 Rat APJ Receptor (GTPγS assay) (nM)": 1.49
  },
  {
    "binder": "XXXQRPRLSHKGPXPF ({TDA}[AC4Abu][Aeea][Aeea]QRP[NMeArg]LSHKGP[Nle][aMePro][4-Cl-F]{COOH}) [Apelin polypeptide SEQ ID NO: 401]",
    "EC50 Rat APJ Receptor (GTPγS assay) (nM)": 0.351
  },
  {
    "binder": "Tridecanoyl-[γGlu][AEEA][AEEA][dQ][hArg]P[dR][Cha]SHKG[Oic][Nle]P[2Nal]-OH [Apelin polypeptide SEQ ID NO: 368]",
    "EC50 Rat APJ Receptor (GTPγS assay) (nM)": 31.4
  },
  {
    "binder": "Tridecanoyl-[γGlu][AEEA][AEEA]QRP[Nle]LSHKGP[Nle]P[Phe(4-Cl)]-OH (SMILES CCCCCCCCCCCCC(=O)N[C@@H](CCC(=O)NCCOCCOCC(=O)NCCOCCOCC(=O)N[C@@H](CCC(N)=O)C(=O)N[C@@H](CCCNC(=N)N)C(=O)N1CCC[C@H]1C(=O)N[C@@H](CCCC)C(=O)N[C@@H](CC(C)C)C(=O)N[C@@H](CO)C(=O)N[C@@H](Cc1c[nH]cn1)C(=O)N[C@@H](CCCCN)C(=O)NCC(=O)N1CCC[C@H]1C(=O)N[C@@H](CCCC)C(=O)N1CCC[C@H]1C(=O)N[C@@H](Cc1ccc(Cl)cc1)C(=O)O)C(=O)O) [Apelin polypeptide SEQ ID NO: 428]",
    "EC50 Rat APJ Receptor (GTPγS assay) (nM)": 0.494
  },
  {
    "binder": "Tridecanoyl-[γGlu][AEEA][AEEA][dQ]R[αMeP][hArg][BLeu]SHKG[Oic][Nle][αMeP][Phe(4-Cl)]-OH [Apelin polypeptide SEQ ID NO: 502]",
    "EC50 Rat APJ Receptor (GTPγS assay) (nM)": 4.81
  },
  {
    "binder": "Tridecanoyl-[γGlu][AEEA][AEEA][dQ]RP[hArg][BLeu]SHKG[Oic][Nle]P[Phe(4-Cl)]-OH [Apelin polypeptide SEQ ID NO: 378]",
    "EC50 Rat APJ Receptor (GTPγS assay) (nM)": 0.411
  },
  {
    "binder": "Tridecanoyl-[γGlu][AEEA][AEEA][dQ]R[Pip′][NMeR][Cha]SHKG[Oic][Nle][Aib][Phe(4-Cl)]-OH [Apelin polypeptide SEQ ID NO: 517]",
    "EC50 Rat APJ Receptor (GTPγS assay) (nM)": 3.22
  },
  {
    "binder": "Tridecanoyl-[γGlu][AEEA][AEEA][dQ][hArg]P[dR][Cha]SHKG[Oic][Nle]P[1Nal]-OH [Apelin polypeptide SEQ ID NO: 367]",
    "EC50 Rat APJ Receptor (GTPγS assay) (nM)": 67.5
  }
]
